- experiment-notes: Cytotoxicity in HeLa cells, ATP content measured with the ATPlite kit
- Type: cell-based
- run-conditions: human, TOX HELA pCC50
quantity-measured: CC50 at 3 days

# molecule, quantity-measured, result
measured = [
    ("CCc1cc(C(=O)N2CCCCCC2C)nc2cc(-c3ccc(S(N)(=O)=O)cc3F)nn12 (centres unmarked) [Compound P2]", "CC50 at 3 days", "> 25.1 µM"),
    ("CCCC(=O)Nc1ccc(-c2cc3nc(C(=O)N4CCCCCC4C)cc(CC)n3n2)c(F)c1 (centres unmarked) [Compound E4]", "CC50 at 3 days", "> 25.1 µM"),
    ("C[C@@H]1CCCCCN1C(=O)c1cc(C2CCC2)n2nc(-c3ccc4cc(C(=O)O)c(=O)oc4c3F)cc2n1 (racemic) [Compound F53]", "CC50 at 3 days", "60.3 µM"),
    ("CCc1cc(C(=O)N2CCCCCC2C)nc2cc(-c3ccc(NC(=O)OCCO)cc3)nn12 (centres unmarked) [Compound C6]", "CC50 at 3 days", "> 25.1 µM"),
    ("CCc1cc(C(=O)N2CCCCC[C@H]2C)nc2cc(-c3ccc(N4CC[C@](C)(C(=O)O)C4)cc3F)nn12 [Compound W49]", "CC50 at 3 days", "53.7 µM"),
    ("CCc1cc(C(=O)N2CCCCCC2C)nc2cc(-c3ccc(NC(=O)c4nccn4C)cc3F)nn12 (centres unmarked) [Compound E1]", "CC50 at 3 days", "> 25.1 µM"),
    ("CCc1cc(C(=O)N2CCn3cccc3C2C)nc2cc(-c3ccc(C(N)=O)cc3F)nn12 (centres unmarked) [Compound I35]", "CC50 at 3 days", "> 25.1 µM"),
    ("CC1CCCCCN1C(=O)c1cc(CC2CCCCC2)n2nc(-c3ccccc3F)cc2n1 (centres unmarked) [Compound A20]", "CC50 at 3 days", "> 25.1 µM"),
]
